test details: Plasma clearance in Sprague-Dawley rat at 3 mg/kg, iv
Assay type: ADME, organism-based
Parameters: dose 3 mg/kg, route intravenous
assay readout: clearance (mL/min/kg)
Expressed in mL/min/kg, but write only the number.

The value of clearance measured for the compound Cc1ccccc1[C@@H]1CCN(C[C@@H]2CCc3cccnc3[C@@H](O)C2)C[C@H]1O turned out to be 91

###

Listed next: entries and their corresponding PPB.
System: Plasma
condition label: dog, in vivo, iv, 1 mg/kg, 20 min
Description: Protein binding in anesthetized dog plasma at 1 mg/kg, iv dosed for 10 mins measured after 20 mins
Express your answer in %, writing the number without its unit.

[
  {
    "structure string": "O[C@H]1C[C@H](CN2CC[C@H](c3ccc(F)cc3Cl)[C@@H](O)C2)Cc2cccnc21",
    "PPB (%)": 57
  }
]

Next item in the queue.
Looking up Cc1ccccc1[C@@H]1CCN(C[C@@H]2CCc3cccnc3[C@@H](O)C2)C[C@H]1O , I found its PPB recorded as 62

###

system tested: Nociceptin receptor (Homo sapiens)
Sequence (P41146 whole entry): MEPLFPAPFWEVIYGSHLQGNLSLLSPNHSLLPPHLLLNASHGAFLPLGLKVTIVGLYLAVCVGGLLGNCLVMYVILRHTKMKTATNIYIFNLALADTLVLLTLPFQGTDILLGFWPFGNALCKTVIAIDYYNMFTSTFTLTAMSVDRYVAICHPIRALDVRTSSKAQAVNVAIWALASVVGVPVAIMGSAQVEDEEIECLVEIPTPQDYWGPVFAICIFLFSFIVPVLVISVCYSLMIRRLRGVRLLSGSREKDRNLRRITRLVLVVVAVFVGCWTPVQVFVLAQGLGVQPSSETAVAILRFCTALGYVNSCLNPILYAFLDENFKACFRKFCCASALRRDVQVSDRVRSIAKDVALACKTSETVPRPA
test details: Antagonist activity at human ORL1 expressed in CHO cells assessed as effect on nociceptin-induced GTPgammaS binding
Recorded measurements of pIC50, one per entry
Would you please state pIC50, meaning minus log10 of the concentration in mol/L, as a bare number?

[
  {
    "structure string": "O[C@H]1C[C@H](CN2CCC(c3c(Cl)cccc3Cl)CC2)CCc2cccnc21",
    "pIC50": 8.80
  }
]

Form field, pIC50 with Nociceptin receptor (Homo sapiens), item Cc1ccccc1[C@@H]1CCN(C[C@@H]2CCc3cccnc3[C@@H](O)C2)C[C@H]1C : 8.24

Tested system Nociceptin receptor (Homo sapiens); pIC50 recorded for O[C@H]1C[C@H](CN2CC[C@H](c3ccc(F)cc3Cl)[C@@H](O)C2)CCc2cccnc21 was 8.30

Measured pIC50 (Nociceptin receptor (Homo sapiens)), entry O[C@H]1C[C@H](CN2CCC(c3ccccc3Cl)CC2)CCc2cccnc21 : 7.57

###

system tested: Voltage-gated inwardly rectifying potassium channel KCNH2 (Homo sapiens)
Sequence (Q12809 whole entry): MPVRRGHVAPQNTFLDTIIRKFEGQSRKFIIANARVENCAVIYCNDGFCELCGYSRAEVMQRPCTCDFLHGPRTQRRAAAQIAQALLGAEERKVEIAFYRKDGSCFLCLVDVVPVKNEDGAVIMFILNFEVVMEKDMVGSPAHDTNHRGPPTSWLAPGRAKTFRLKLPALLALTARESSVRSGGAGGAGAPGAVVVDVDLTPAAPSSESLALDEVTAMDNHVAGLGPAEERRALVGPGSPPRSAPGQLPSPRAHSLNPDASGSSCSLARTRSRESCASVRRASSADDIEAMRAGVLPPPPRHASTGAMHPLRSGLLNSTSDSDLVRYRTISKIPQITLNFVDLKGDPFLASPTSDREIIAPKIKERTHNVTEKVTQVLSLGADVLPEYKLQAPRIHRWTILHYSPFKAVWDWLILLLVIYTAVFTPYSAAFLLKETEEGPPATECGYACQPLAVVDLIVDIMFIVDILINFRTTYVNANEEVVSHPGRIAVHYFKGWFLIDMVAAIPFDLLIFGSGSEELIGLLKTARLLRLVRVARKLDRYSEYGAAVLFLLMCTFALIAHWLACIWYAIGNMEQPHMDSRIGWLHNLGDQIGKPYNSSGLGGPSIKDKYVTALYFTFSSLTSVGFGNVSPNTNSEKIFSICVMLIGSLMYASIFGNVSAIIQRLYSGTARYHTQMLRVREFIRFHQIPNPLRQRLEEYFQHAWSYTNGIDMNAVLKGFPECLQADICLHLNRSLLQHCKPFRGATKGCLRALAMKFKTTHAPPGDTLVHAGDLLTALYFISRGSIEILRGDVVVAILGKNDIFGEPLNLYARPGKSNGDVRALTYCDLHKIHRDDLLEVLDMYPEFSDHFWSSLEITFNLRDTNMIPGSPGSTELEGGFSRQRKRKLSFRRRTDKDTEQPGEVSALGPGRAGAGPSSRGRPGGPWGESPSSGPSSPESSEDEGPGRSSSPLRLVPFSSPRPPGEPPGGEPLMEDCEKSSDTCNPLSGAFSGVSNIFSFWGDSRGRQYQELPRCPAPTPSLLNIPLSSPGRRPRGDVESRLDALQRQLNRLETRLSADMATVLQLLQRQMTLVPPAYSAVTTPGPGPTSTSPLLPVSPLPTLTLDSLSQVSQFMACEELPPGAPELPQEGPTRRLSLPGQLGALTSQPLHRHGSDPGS
pIC50 listing for selected compounds.
When answering, recall that pIC50 equals minus log10 of the concentration in mol/L, and write that number alone.

[
  {
    "structure string": "O[C@H]1C[C@H](CN2CCC(c3ccccc3Cl)CC2)CCc2cccnc21",
    "system tested": "Voltage-gated inwardly rectifying potassium channel KCNH2 (Homo sapiens)",
    "pIC50": 5.82
  },
  {
    "structure string": "O[C@H]1C[C@H](CN2CCC(c3ccccc3)CC2)CCc2cccnc21",
    "system tested": "Voltage-gated inwardly rectifying potassium channel KCNH2 (Homo sapiens)",
    "pIC50": 4.96
  }
]

Let us move to another entry and its pIC50.
Reported Voltage-gated inwardly rectifying potassium channel KCNH2 (Homo sapiens) pIC50 for item O[C@H]1C[C@H](CN2CCC(c3c(Cl)cccc3Cl)CC2)CCc2cccnc21 was 6.03

###

system tested: UniProt:P41146
Listed here are compounds together with their documented pKi.
// field semantics: pKi = negative decimal log of concentration (mol/L)

Previously resolved entries follow.
[
  {
    "structure string": "Cc1ccccc1C1CCN(C[C@@H]2CCc3cccnc3C(=O)C2)CC1",
    "system tested": "UniProt:P41146",
    "assay readout": "pKi",
    "observed measurement": 7.31
  },
  {
    "structure string": "Cc1ccccc1C1CCN(C[C@@H]2Cc3cccnc3[C@@H](O)C2)CC1",
    "system tested": "UniProt:P41146",
    "assay readout": "pKi",
    "observed measurement": 7.96
  }
]

// compound Cc1ccccc1[C@H]1CCN(C[C@@H]2Cc3cccnc3[C@@H](O)C2)C[C@@H]1O , assay UniProt:P41146, pKi value: 7.29

Noted pKi for Cc1cc(F)ccc1[C@H]1CCN(C[C@@H]2Cc3cccnc3[C@@H](O)C2)C[C@@H]1O , tested on UniProt:P41146: 7.68

Entry O[C@H]1C[C@H](CN2CC[C@H](c3ccc(F)cc3Cl)[C@@H](O)C2)CCc2cccnc21 : pKi on UniProt:P41146 = 8.36

###

test details: AUC (0 to infinity) in Beagle dog at 1 mg/kg, iv
Format: ADME, organism-based, Canis lupus familiaris
Parameters: time infinity, dose 1 mg/kg, route intravenous
condition label: plasma
assay readout: AUC(0-inf) (µM·h)
# number only, unit µM·h dropped from output

So for O[C@H]1C[C@H](CN2CC[C@H](c3ccc(F)cc3Cl)[C@@H](O)C2)Cc2cccnc21 , the logged AUC(0-inf) turned out to be 2

###

test details: Bioavailability in Sprague-Dawley rat at 3 mg/kg, iv
Type: ADME, organism-based
condition label: in vivo, po, in the assay text read “po” for “iv”
assay readout: bioavailability

The recorded bioavailability for entry O[C@H]1C[C@H](CN2CC[C@H](c3ccc(F)cc3Cl)[C@@H](O)C2)Cc2cccnc21 equals 13%

###

test details: Half life in Sprague-Dawley rat at 3 mg/kg, iv
Format: ADME, organism-based
Design: dose 3 mg/kg, route intravenous
condition label: in vivo
assay readout: half-life (min)
Supply the numeric figure in min, leaving out any unit text.

The recorded half-life for Cc1ccccc1[C@@H]1CCN(C[C@@H]2CCc3cccnc3[C@@H](O)C2)C[C@H]1O is 54

###

Known remaining at 0.5 h of a selection of compounds
test details: Metabolic stability in cryopreserved human hepatocyte after 30 mins
Format: ADME, cell-based
condition label: cryopreserved human hepatocytes, read-out: Stability
Kindly report the value followed by its unit.

[
  {
    "structure string": "O[C@H]1C[C@H](CN2CC[C@H](c3ccc(F)cc3Cl)[C@@H](O)C2)Cc2cccnc21",
    "observed measurement": "93%"
  }
]

remaining at 0.5 h reading for Cc1ccccc1[C@@H]1CCN(C[C@@H]2CCc3cccnc3[C@@H](O)C2)C[C@H]1O : 62%

###

test details: AUC (0 to infinity) in Sprague-Dawley rat at 3 mg/kg, iv
Assay type: ADME, organism-based
Set-up: time infinity, dose 3 mg/kg, route intravenous
condition label: plasma
assay readout: AUC(0-inf) (µM·h)
Quick note: give the figure in µM·h, leave out the unit.

Entry Cc1ccccc1[C@@H]1CCN(C[C@@H]2CCc3cccnc3[C@@H](O)C2)C[C@H]1O ; AUC(0-inf) = 1.6

###

test details: in vivo
condition label: dog, plasma, iv, 2 mg/kg
Description: Plasma concentration in anesthetized dog at 2 mg/kg, iv dosed for 10 mins measured after 20 mins
Entries and their concentration at 20 min values follow.
Provide the reading as a plain figure in µM.

[
  {
    "structure string": "Cc1ccccc1[C@@H]1CCN(C[C@@H]2CCc3cccnc3[C@@H](O)C2)C[C@H]1O",
    "concentration at 20 min, µM": 4.9
  }
]

Now turn to the next molecule.
Lab note: O[C@H]1C[C@H](CN2CC[C@H](c3ccc(F)cc3Cl)[C@@H](O)C2)Cc2cccnc21 gave concentration at 20 min of 8.3

###

system tested: Kappa-type opioid receptor (Homo sapiens, UniProt P41145)
Sequence (P41145 whole entry): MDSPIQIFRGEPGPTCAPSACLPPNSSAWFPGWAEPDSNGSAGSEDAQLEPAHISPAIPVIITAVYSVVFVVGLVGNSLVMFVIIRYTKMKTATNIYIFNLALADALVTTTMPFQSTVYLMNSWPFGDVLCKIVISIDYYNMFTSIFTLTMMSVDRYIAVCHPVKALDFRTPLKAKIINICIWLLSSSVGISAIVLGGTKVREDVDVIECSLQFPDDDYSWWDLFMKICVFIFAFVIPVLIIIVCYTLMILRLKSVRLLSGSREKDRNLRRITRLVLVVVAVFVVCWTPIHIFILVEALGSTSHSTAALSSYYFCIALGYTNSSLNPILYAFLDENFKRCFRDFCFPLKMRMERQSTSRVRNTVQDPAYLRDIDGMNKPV
test details: Displacement of [3H]U69593 from human cloned kappa opioid receptor expressed in CHO cells
assay readout: IC50

For O[C@H]1C[C@H](CN2CC[C@H](c3ccc(F)cc3Cl)[C@@H](O)C2)Cc2cccnc21 on Kappa-type opioid receptor (Homo sapiens, UniProt P41145), measured IC50 was > 10 µM

###

Entries and their measured concentration at 20 min follow.
test details: in vivo
condition label: dog, plasma, iv, 1 mg/kg
Description: Plasma concentration in anesthetized dog at 1 mg/kg, iv dosed for 10 mins measured after 20 mins
# value in nM; strip the unit string

[
  {
    "structure string": "Cc1ccccc1[C@@H]1CCN(C[C@@H]2CCc3cccnc3[C@@H](O)C2)C[C@H]1O",
    "concentration at 20 min [nM]": 2260
  }
]

The record that follows has no concentration at 20 min shown yet.
The value of concentration at 20 min measured for the compound O[C@H]1C[C@H](CN2CC[C@H](c3ccc(F)cc3Cl)[C@@H](O)C2)Cc2cccnc21 turned out to be 3480

###

test details: Plasma clearance in Sprague-Dawley rat at 0.65 mg/kg, iv
Format: ADME, organism-based
Design: dose 0.65 mg/kg, route intravenous
assay readout: clearance (mL/min/kg)
Give just the numeric value; mL/min/kg need not be written.

compound O[C@H]1C[C@H](CN2CC[C@H](c3ccc(F)cc3Cl)[C@@H](O)C2)Cc2cccnc21 , clearance observed: 47

###

test details: Bioavailability in Sprague-Dawley rat at 10 mg/kg, iv
Assay type: ADME, organism-based
condition label: in vivo, po, in the assay text read “po” for “iv”
assay readout: bioavailability (%)
The figure you give is taken to be in %; do not add the unit.

// bioavailability value for Cc1ccccc1[C@@H]1CCN(C[C@@H]2CCc3cccnc3[C@@H](O)C2)C[C@H]1O : 11

###

test details: physchem
condition label: buffer, pH 7.4
Description: Lipophilicity, log D of compound at pH 7.4 by shake flask method
Rule: measured logD below 2 gets 1; anything equal to or greater than 2 gets -1.

Solved entries:
[
  {
    "compound": "Cc1ccccc1C1CCN(C[C@@H]2CCc3cccnc3C3(C2)OCCO3)CC1",
    "category": -1
  },
  {
    "compound": "Cc1ccccc1C1CCN(C[C@@H]2CCc3cccnc3C(C)(O)C2)CC1 (stereo in doubt; form 2)",
    "category": -1
  },
  {
    "compound": "Cc1ccccc1[C@@H]1CCN(C[C@@H]2CCc3cccnc3[C@@H](O)C2)C[C@H]1O",
    "category": -1
  },
  {
    "compound": "Cc1cc(F)ccc1[C@H]1CCN(C[C@@H]2Cc3cccnc3[C@@H](O)C2)C[C@@H]1O",
    "category": 1
  },
  {
    "compound": "Cc1ccccc1[C@@H]1CCN(C[C@@H]2CCc3cccnc3[C@@H](O)C2)C[C@H]1C",
    "category": -1
  },
  {
    "compound": "O[C@H]1C[C@H](CN2CC[C@H](c3ccc(F)cc3Cl)[C@@H](O)C2)Cc2cccnc21",
    "category": -1
  },
  {
    "compound": "Cc1ccccc1C1CCN(C[C@@H]2CCc3cccnc3C(=O)C2)CC1",
    "category": 1
  }
]

Lab note: confirm whether the reported logD for this compound is below 2, equality not counting. compound: O[C@H]1C[C@H](CN2CCC(c3c(Cl)cccc3Cl)CC2)CCc2cccnc21
-1
